Listing of entries alongside the reported % Inhibition (N = 1) of VEGF-C-mediated KDR activity, antibody 1 nM.
# target system: human KDR on cells (human, UniProt P35968 20-1356)
# Sequence (P35968 20-1356): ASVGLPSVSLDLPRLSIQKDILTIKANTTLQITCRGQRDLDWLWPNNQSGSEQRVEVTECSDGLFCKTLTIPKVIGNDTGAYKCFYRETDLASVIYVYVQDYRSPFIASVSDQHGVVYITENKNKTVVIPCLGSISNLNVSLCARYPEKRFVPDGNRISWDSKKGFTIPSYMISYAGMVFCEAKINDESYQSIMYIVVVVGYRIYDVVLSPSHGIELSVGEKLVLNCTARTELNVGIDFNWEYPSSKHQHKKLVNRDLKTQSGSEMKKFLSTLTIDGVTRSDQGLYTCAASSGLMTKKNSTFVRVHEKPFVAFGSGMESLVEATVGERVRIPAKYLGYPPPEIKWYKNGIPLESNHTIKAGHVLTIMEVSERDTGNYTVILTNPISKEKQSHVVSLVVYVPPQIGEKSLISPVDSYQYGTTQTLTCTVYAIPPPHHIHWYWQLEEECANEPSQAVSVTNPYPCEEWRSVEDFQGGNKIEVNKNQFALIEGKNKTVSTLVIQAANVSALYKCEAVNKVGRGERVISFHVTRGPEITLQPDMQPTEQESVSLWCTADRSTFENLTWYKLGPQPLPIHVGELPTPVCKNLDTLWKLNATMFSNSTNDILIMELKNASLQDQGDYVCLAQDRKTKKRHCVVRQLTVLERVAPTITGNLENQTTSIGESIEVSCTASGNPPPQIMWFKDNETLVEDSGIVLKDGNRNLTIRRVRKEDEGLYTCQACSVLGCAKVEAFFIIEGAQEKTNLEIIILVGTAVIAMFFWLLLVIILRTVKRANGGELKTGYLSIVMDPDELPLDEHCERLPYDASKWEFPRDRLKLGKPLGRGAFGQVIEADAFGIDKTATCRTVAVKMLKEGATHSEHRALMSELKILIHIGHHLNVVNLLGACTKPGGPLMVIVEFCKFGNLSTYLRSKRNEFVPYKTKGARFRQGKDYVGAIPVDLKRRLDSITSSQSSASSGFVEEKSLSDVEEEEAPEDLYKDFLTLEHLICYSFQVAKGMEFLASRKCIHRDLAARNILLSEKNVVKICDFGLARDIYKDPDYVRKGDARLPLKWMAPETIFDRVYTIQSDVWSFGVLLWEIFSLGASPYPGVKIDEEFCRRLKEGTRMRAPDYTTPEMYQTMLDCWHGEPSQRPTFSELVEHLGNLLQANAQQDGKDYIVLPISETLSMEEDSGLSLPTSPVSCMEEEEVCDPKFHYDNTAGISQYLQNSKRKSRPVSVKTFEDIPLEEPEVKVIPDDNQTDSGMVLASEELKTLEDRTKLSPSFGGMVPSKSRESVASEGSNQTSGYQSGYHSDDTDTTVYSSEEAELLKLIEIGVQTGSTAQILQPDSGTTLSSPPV
# experimental details: cell-based or functional assay
property: % Inhibition (N = 1) of VEGF-C-mediated KDR activity, antibody 1 nM

{"columns": ["binder", "result"],
 "data": [
  ["31E11 (antibody, V domains shown) VH: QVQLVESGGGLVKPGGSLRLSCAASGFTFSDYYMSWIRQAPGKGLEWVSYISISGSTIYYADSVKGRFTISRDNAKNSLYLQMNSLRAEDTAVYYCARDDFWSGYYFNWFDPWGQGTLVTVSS VL: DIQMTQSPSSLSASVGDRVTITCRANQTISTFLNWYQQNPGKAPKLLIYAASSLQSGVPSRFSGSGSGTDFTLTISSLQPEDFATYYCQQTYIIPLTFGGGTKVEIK", "47%"],
  ["33B1 (antibody, V domains shown) VH: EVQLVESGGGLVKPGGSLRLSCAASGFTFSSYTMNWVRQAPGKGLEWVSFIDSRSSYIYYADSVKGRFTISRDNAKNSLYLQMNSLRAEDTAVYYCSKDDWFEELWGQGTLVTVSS VL: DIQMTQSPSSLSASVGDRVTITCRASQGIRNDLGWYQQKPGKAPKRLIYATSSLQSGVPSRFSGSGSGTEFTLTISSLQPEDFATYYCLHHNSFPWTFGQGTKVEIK", "45%"],
  ["24B3 (antibody, V domains shown, Purified fully human monoclonal antibody from XenoMouse hybridoma (IgG2 or IgG4 strains); also called MAb 24B3) VH: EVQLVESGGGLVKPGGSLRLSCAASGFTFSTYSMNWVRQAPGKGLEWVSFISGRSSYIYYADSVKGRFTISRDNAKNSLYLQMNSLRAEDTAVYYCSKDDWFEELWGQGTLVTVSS VL: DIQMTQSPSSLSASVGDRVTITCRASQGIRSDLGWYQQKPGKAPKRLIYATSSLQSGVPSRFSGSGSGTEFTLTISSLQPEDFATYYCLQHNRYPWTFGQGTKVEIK", "26%"],
  ["32F4 (antibody, V domains shown) VH: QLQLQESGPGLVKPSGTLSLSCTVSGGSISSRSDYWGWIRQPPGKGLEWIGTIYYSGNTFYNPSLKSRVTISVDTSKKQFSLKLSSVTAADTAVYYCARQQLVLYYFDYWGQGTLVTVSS VL: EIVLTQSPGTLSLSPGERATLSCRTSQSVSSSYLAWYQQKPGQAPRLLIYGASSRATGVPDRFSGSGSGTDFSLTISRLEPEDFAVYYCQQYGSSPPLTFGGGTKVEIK", "55%"]
]}

Data origin, for the record: patent US20100260765A1
